system.name: PTB1 (human, UniProt P26599-1 1-531)
test.details: EMSA
parameter: pKd
Scale for pKd: -log10 of concentration given in mol/L; no unit attached.

QUERY: Look at this binder and give its reported pKd. GGAGACUUGGUGGCUCCAUCUUAGCCCUA (structured_RNA) [HCV X SL3]
RESULT: 6.55
